Tested on: SRPK3;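 note: KINOMEscan kinase panel screen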
Conditions: concentration: 1 μM,replicates: in singlicate; n = 1
property-label: %Inh
# answer = value followed by unit

compound: CN(C)CC(O)COc1ccc(Nc2nccc(-c3cnn4nc(N5CCOCC5)ccc34)n2)cc1 (centres unmarked)
%Inh: 80%
//
compound: O=C(NCCNc1ccnc(NCc2ccc(F)cc2)n1)c1cc2ccccc2s1
%Inh: 0%

Sample CC(C)N1C(=O)Cc2cc(Nc3ncc(C(F)(F)F)c(NCc4cccc(S(C)(=O)=O)c4)n3)ccc21 ; %Inh observed: 24%

Sample C[C@H]1Oc2cc(cnc2N)-c2c(nn(C)c2C#N)CN(C)C(=O)c2ccc(F)cc21 ; %Inh observed: 12%
